Molecular target: T1, recombinant human PCSK9 protein, His-tagged (Immunogen A, hPCSK9-His) (human, UniProt Q8NBP7 31-692, limits assumed, biotin-labelled in the ELISA and blocking assays (Biotin labeling kit))
T1 construct: also called human PCSK9-His; recombinant hPCSK9-His; not shown: His tag
Assay: ELISA, biotin-hPCSK9-His on streptavidin plate; antibody 0 nM (blank)

# BINDER, UNIT TEXT, OD450 nm
data = [
    ("76A1B11, chimeric anti-PCSK9 mAb purified from hybridoma (antibody, V domains shown, From Harbour H2L2 mice: human variable regions, rat constant regions) VH: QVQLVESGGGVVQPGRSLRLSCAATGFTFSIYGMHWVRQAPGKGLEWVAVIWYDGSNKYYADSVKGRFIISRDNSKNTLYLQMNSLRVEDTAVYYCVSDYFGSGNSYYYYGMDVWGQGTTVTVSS VL: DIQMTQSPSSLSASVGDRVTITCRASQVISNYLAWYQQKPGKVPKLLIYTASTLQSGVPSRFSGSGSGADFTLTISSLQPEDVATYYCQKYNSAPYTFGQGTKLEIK", "OD450 nm", 0.18),
]
